molecular target: IFN-gamma (Homo sapiens, UniProt P01579 P01579:24-161); experiment: filter; 1x DPBS, 0.1 mg/ml BSA; Table 21 gives 227.87; conditions: tags: R&D Systems, Minneapolis; chain copies: 2; label: 5'-32P
Sequence (P01579 24-161, one chain of several): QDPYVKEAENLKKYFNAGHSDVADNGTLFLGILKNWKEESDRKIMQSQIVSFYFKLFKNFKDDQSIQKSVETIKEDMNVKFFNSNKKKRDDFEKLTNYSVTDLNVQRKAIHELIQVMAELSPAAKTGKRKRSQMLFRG
observed property: pKd
Give only the number. pKd is defined as minus log10 of concentration in molar units.

input: Quick one: pKd for ARC818 (AMX(192)_E3) (mixed, dRmY: deoxy A,G; 2'-OMe C,U (cDNA printed, T=U)) DNA: GGGAGAGGAGAGAACGTTCTACGGGTGGCTGGGGCAGGGGAGGTAGGTAGGGTCGATCGATCGATCATCGATG ?
output: 6.74
